# assayProtocol: Inhibition of Tg2576 mouse amyloid beta40 aggregation measured after 3 days by ELISA
measureName: IC50
Remember to follow the number with its unit.

input: # input compound: COc1cc(/C=C/C(=O)CC(=O)/C=C/c2ccc(O)c(OC)c2)ccc1O [CURCUMIN] ; wanted: its IC50
output: 1000 nM

Numbers sourced from ChEMBL document CHEMBL3872251.
